Test system: MDA-MB-468 breast
Test: NCI tumour cell line growth inhibition, 48 h; in the data active = GI50 below about 0.43 µM; inactive = the rest
*1 amine or outer side, *2 acyl side, *3 side chain or, on linkers, in order; H or OH if unused. Where a SMILES comes first, the peptide text is derived from it. [ ]: non-standard residue; d: D form. ξ: configuration not given here. X21 = CC[C@@H](C)C(N[*:1])C(=O)[*:2]; ξR = N=C(N)NCCCC(N)C(=O)O; ξI = CCC(C)C(N)C(=O)O; ξL = CC(C)CC(N)C(=O)O; ξK = NCCCCC(N)C(=O)O; ξV = CC(C)C(N)C(=O)O; ξA = CC(N)C(=O)O
Outcomes: t (active), f (inactive)

Compound	Category label
CCC(C)C1NC(=O)C(CC(C)C)NC(=O)C(C)NC(=O)C(C(C)C)NC(=O)C(CCCCN)NC(=O)C(CC(C)C)NC(=O)C(C(C)C)NC(=O)[C@H](C)NC(=O)C(C(C)CC)NC(=O)C(CCCN=C(N)N)NC(=O)C(CCCCN)NC(=O)C(CCCN=C(N)N)NC(=O)C(CCCCN)NC(=O)C([C@H](C)CC)NC(=O)C(CCCCN)NC1=O (some centres undefined) (cyclo(A[ξV][ξL][ξK][ξV][ξA][ξL][ξI][ξK][X21][ξK][ξR][ξK][ξR][ξI]))	t
COc1ccccc1/C=C/C(=O)/C=C/c1ccccc1OC	f
COc1cc(OC)c(C(=O)/C=C/c2cccc(OC(C)=O)c2)cc1CC=C(C)C	f
Cc1cc2cn3c4cccnc4[nH]c(=O)c3c2cc1C	f
C#C[C@]1(O)CC[C@H]2[C@@H]3CC=C4c5sc(N6CCN(C)CC6)nc5CC[C@]4(C)[C@H]3CC[C@@]21C	f
OCc1ccc(N(CCN2CCCC2)Cc2ccc(F)cc2)cc1Cl	f
N#C/C(=C\c1ccc(Br)cc1)n1nnc2ccccc21	f
CCNCCCn1c2c(c3ccc([N+](=O)[O-])cc3c1=O)C(=O)c1cc(OC)cnc1-2	t
Nc1ccccc1NC(=O)c1ccc(NC(=O)C/C=C/c2cccnc2)cn1	f

Values compiled from PubChem BioAssay (NCI).
